// data source = patent US8741932B2

# System: A549
# Measurement protocol: Cytotoxicity assay (propidium iodide), A549
# Assay type: cell-based
# Assay conditions: Homo sapiens; A549 (C1a, lung); 48 hours
pIC50: −log10 of the molar value.
Measured endpoint: pIC50

[[record]]
smiles_data = "CN(N=Cc1cnc2ccc(-c3cccnc3)cn12)S(=O)(=O)c1ccccc1"
measured_endpoint = "pIC50"
result = "5.30 to 8.00"

[[record]]
smiles_data = "CN(N=Cc1cnc2ccc(-c3cccnc3)cn12)S(=O)(=O)c1cccc2cccnc12"
measured_endpoint = "pIC50"
result = "< 5.30"

[[record]]
smiles_data = "CN(/N=C/c1cnc2ccc(-c3cccnc3)cn12)S(=O)(=O)c1cccc(C#N)c1"
measured_endpoint = "pIC50"
result = "5.30 to 8.00"

[[record]]
smiles_data = "Cc1ccccc1S(=O)(=O)N(C)/N=C/c1cnc2ccc(-c3cccnc3)cn12"
measured_endpoint = "pIC50"
result = "5.30 to 8.00"


---

# System: H460
# Measurement protocol: Cytotoxicity assay (propidium iodide), H460
# Format: cell-based
# Assay conditions: Homo sapiens, NCI-H460; H460 (C1b, lung); 48 hours
pIC50: −log10 of the molar value.
Quick reference: pIC50 of the listed items.
Measured endpoint: pIC50

[[record]]
smiles_data = "CN(/N=C/c1cnc2ccc(-c3cccnc3)cn12)S(=O)(=O)c1ccccc1OC(F)(F)F"
result = "5.30 to 8.00"

[[record]]
smiles_data = "CN(N=Cc1cnc2ccc(-c3cccnc3)cn12)S(=O)(=O)c1cccs1"
result = "5.30 to 8.00"

[[record]]
smiles_data = "CN(/N=C/c1cnc2ccc(-c3cccnc3)cn12)S(=O)(=O)c1cccc(C#N)c1"
result = "5.30 to 8.00"

[[record]]
smiles_data = "CN(N=Cc1cnc2ccc(-c3cccnc3)cn12)S(=O)(=O)c1cccc(Br)c1"
result = "< 5.30"


---

# Test system: PC3
pIC50: −log10 of the molar value.
Measured endpoint: pIC50

[[record]]
smiles_data = "Cc1ccc([N+](=O)[O-])cc1S(=O)(=O)N(C)N=Cc1cnc2ccc(-c3ccc(F)nc3)cn12"
measured_endpoint = "pIC50"
result = "< 5.30"

[[record]]
smiles_data = "Cc1cccc(S(=O)(=O)N(C)N=Cc2cnc3ccc(-c4cccnc4)cn23)c1"
measured_endpoint = "pIC50"
result = "5.30 to 8.00"


---

# Tested on: HCT116
# Measurement protocol: Cytotoxicity assay (propidium iodide), HCT116
# Assay type: cell-based
# Assay conditions: Homo sapiens, HCT-116; HCT116 (C4b, colon); 48 hours
Quick reference: IC50 of the listed items.
Measured endpoint: IC50

[[record]]
smiles_data = "CN(N=Cc1cnc2ccc(-c3cccnc3)cn12)S(=O)(=O)c1ccc(F)c(C#N)c1"
system_name = "HCT116"
result = "> 5 µM"

[[record]]
smiles_data = "Cc1ccc(F)cc1S(=O)(=O)N(C)N=Cc1cnc2ccc(-c3cccnc3)cn12"
system_name = "HCT116"
result = "0.01 to 5 µM"

[[record]]
smiles_data = "CN(N=Cc1cnc2ccc(-c3cccnc3)cn12)S(=O)(=O)c1ccccc1"
system_name = "HCT116"
result = "0.01 to 5 µM"

[[record]]
smiles_data = "CN(N=Cc1cnc2ccc(-c3cccnc3)cn12)S(=O)(=O)c1cccc(F)c1"
system_name = "HCT116"
result = "0.01 to 5 µM"

[[record]]
smiles_data = "COc1ccc(S(=O)(=O)N(C)N=Cc2cnc3ccc(-c4cccnc4)cn23)cc1"
system_name = "HCT116"
result = "0.01 to 5 µM"

[[record]]
smiles_data = "Cc1ccc(S(=O)(=O)N(C)N=Cc2cnc3ccc(-c4cccnc4)cn23)cc1"
system_name = "HCT116"
result = "0.01 to 5 µM"

[[record]]
smiles_data = "Cc1ccc([N+](=O)[O-])cc1S(=O)(=O)N(C)N=Cc1cnc2ccc(-c3cccnc3)cn12"
system_name = "HCT116"
result = "0.01 to 5 µM"

[[record]]
smiles_data = "Cc1ccc(S(=O)(=O)N(C)N=Cc2cnc3ccc(-c4cccnc4)cn23)cc1F"
system_name = "HCT116"
result = "> 5 µM"


---

# Test system: A549
# Measurement protocol: Cytotoxicity assay (propidium iodide), A549
# Format: cell-based
# Assay conditions: A549 (C1a, lung); 48 hours
Quick reference: IC50 of the listed items.
Measured endpoint: IC50

[[record]]
smiles_data = "Cc1ccc([N+](=O)[O-])cc1S(=O)(=O)N(C)N=Cc1cnc2ccc(-c3ccc(F)nc3)cn12"
system_name = "A549"
result = "> 5 µM"

[[record]]
smiles_data = "Cc1cccc(S(=O)(=O)N(C)N=Cc2cnc3ccc(-c4cccnc4)cn23)c1"
system_name = "A549"
result = "0.01 to 5 µM"


---

# System: U266B1
# Measurement protocol: Cytotoxicity assay (propidium iodide), U266B1
# Type: cell-based
# Assay conditions: U266B1 (C7a, multiple myeloma); 48 hours
pIC50: −log10 of the molar value.
Measured endpoint: pIC50

[[record]]
smiles_data = "Cc1ccc(F)cc1S(=O)(=O)N(C)N=Cc1cnc2ccc(-c3cccnc3)cn12"
result = "5.30 to 8.00"


---

# Test system: HCT116
# Measurement protocol: Cytotoxicity assay (propidium iodide), HCT116
# Assay type: cell-based
# Assay conditions: Homo sapiens, HCT-116; HCT116 (C4b, colon); 48 hours
pIC50: −log10 of the molar value.
Measured endpoint: pIC50

[[record]]
compound = "CN(/N=C/c1cnc2ccc(-c3cccnc3)cn12)S(=O)(=O)c1cccc(C#N)c1 [Example 10]"
result = "5.30 to 8.00"

[[record]]
compound = "CN(N=Cc1cnc2ccc(-c3cccnc3)cn12)S(=O)(=O)c1ccc(F)cc1 [Example 6]"
result = "5.30 to 8.00"

[[record]]
compound = "Cc1ccc([N+](=O)[O-])cc1S(=O)(=O)N(C)N=Cc1cnc2ccc(-c3cnc4ccccc4c3)cn12 [Example 99]"
result = "5.30 to 8.00"

[[record]]
compound = "CN(N=Cc1cnc2ccc(-c3cccnc3)cn12)S(=O)(=O)c1cccs1 [Example 29]"
result = "5.30 to 8.00"


---

Quick reference: IC50 of the listed items.
# Test system: MDA MB 231
# Measurement protocol: Cytotoxicity assay (propidium iodide), MDA MB 231
# Format: cell-based
# Assay conditions: MDA MB 231 (C6a, breast); 48 hours
Measured endpoint: IC50

[[record]]
smiles_data = "Cc1cccc(S(=O)(=O)N(C)N=Cc2cnc3ccc(-c4cccnc4)cn23)c1"
result = "0.01 to 5 µM"

[[record]]
smiles_data = "Cc1ccc([N+](=O)[O-])cc1S(=O)(=O)N(C)N=Cc1cnc2ccc(-c3ccc(F)nc3)cn12"
result = "0.01 to 5 µM"


---

# System name: STAT3
# Measurement protocol: STAT3 bioassay (Hela Stat3-luc, luciferase)
# Assay type: cell-based
# Assay conditions: Oncostatin M induction
pIC50: −log10 of the molar value.
Measured endpoint: pIC50

[[record]]
compound = "Cc1cccc(S(=O)(=O)N(C)N=Cc2cnc3ccc(-c4cccnc4)cn23)c1 [Example 2]"
system_name = "STAT3"
result = "5.00 to 5.30"


---

# Tested on: H460
# Measurement protocol: Cytotoxicity assay (propidium iodide), H460
# Assay type: cell-based
# Assay conditions: H460 (C1b, lung); 48 hours
Quick reference: IC50 of the listed items.
Measured endpoint: IC50

[[record]]
smiles_data = "Cc1cccc(S(=O)(=O)N(C)N=Cc2cnc3ccc(-c4cccnc4)cn23)c1"
system_name = "H460"
measured_endpoint = "IC50"
result = "0.01 to 5 µM"

[[record]]
smiles_data = "Cc1ccc([N+](=O)[O-])cc1S(=O)(=O)N(C)N=Cc1cnc2ccc(-c3ccc(F)nc3)cn12"
system_name = "H460"
measured_endpoint = "IC50"
result = "> 5 µM"


---

# System name: PI3Kα kinase (Homo sapiens)
# Construct: purchased Millipore, USA
# Sequence (P42336 whole entry): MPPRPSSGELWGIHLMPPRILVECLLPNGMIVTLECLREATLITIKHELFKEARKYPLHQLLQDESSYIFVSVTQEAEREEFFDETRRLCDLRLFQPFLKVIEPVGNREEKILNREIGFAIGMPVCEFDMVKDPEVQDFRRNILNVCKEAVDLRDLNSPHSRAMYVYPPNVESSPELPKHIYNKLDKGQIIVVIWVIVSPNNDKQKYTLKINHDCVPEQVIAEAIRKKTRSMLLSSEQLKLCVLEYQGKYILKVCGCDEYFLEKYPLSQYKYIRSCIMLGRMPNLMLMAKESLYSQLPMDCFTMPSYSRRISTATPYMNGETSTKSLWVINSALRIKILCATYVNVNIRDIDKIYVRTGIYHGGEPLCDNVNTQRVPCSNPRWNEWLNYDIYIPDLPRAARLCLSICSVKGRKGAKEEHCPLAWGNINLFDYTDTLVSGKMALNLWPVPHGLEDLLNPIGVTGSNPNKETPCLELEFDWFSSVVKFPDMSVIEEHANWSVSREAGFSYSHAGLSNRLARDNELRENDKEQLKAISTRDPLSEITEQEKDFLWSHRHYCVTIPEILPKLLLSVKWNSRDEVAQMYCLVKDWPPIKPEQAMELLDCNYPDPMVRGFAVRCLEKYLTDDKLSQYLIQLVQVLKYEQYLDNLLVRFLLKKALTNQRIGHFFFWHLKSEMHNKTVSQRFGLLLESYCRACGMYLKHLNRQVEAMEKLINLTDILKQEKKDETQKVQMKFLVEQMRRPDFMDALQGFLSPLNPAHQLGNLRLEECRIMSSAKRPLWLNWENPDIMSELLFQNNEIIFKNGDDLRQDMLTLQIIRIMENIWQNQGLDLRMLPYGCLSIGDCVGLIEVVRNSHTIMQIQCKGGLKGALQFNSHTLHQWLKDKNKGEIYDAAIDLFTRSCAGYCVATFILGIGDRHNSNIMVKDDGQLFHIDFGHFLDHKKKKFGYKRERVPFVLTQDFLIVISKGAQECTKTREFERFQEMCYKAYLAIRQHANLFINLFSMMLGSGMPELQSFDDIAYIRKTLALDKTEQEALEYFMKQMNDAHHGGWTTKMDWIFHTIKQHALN
# Sequence (P27986 whole entry partner): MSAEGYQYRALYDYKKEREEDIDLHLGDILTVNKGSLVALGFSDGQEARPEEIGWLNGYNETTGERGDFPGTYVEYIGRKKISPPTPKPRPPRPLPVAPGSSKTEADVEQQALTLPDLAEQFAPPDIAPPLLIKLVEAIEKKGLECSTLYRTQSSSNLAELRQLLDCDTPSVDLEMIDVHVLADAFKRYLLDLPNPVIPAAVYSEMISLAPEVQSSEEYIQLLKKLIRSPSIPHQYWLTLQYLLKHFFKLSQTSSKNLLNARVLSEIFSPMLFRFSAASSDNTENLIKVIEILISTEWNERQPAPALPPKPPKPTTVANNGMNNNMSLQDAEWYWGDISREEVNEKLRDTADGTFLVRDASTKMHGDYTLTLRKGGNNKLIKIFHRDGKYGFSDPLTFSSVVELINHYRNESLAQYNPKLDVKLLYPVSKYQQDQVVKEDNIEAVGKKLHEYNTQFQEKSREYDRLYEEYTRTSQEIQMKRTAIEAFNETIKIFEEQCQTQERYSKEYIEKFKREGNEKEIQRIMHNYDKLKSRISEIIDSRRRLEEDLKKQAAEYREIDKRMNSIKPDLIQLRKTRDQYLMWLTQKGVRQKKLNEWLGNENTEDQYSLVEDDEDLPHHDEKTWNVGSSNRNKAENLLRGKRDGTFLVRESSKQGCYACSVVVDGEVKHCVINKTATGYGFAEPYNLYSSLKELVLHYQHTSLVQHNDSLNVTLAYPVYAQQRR
# Measurement protocol: Kinase assay (PI3Kα)
# Format: biochemical
# Assay conditions: read-out: IC50 (μM) for PI3K inhibition
Quick reference: IC50 of the listed items.
Measured endpoint: IC50

[[record]]
compound = "CN(N=Cc1cnc2ccc(-c3cccnc3)cn12)S(=O)(=O)c1ccc(F)cc1 [Example 6]"
measured_endpoint = "IC50"
result = "0.5 to 1 µM"

[[record]]
compound = "CN(N=Cc1cnc2ccc(-c3cccnc3)cn12)S(=O)(=O)c1cc(F)cc(F)c1 [Example 16]"
measured_endpoint = "IC50"
result = "0.5 to 1 µM"

[[record]]
compound = "CN(N=Cc1cnc2ccc(-c3cccnc3)cn12)S(=O)(=O)c1ccc(F)c(F)c1 [Example 15]"
measured_endpoint = "IC50"
result = "0.5 to 1 µM"

[[record]]
compound = "CN(N=Cc1cnc2ccc(-c3cccnc3)cn12)S(=O)(=O)c1cccc(Br)c1 [Example 7]"
measured_endpoint = "IC50"
result = "0.01 to 0.5 µM"

[[record]]
compound = "CN(N=Cc1cnc2ccc(-c3cccnc3)cn12)S(=O)(=O)c1ccc(F)c(Cl)c1 [Example 18]"
measured_endpoint = "IC50"
result = "0.01 to 0.5 µM"

[[record]]
compound = "CCN(/N=C/c1cnc2ccc(-c3cccnc3)cn12)S(=O)(=O)c1cc([N+](=O)[O-])ccc1C [Example 84]"
measured_endpoint = "IC50"
result = "0.01 to 0.5 µM"

[[record]]
compound = "Cc1cc(C)c(S(=O)(=O)N(C)N=Cc2cnc3ccc(-c4cccnc4)cn23)c(C)c1 [Example 27]"
measured_endpoint = "IC50"
result = "0.01 to 0.5 µM"

[[record]]
compound = "CN(N=Cc1cnc2ccc(-c3cccnc3)cn12)S(=O)(=O)c1c(F)cccc1F [Example 14]"
measured_endpoint = "IC50"
result = "0.01 to 0.5 µM"

